Target: hERG potassium ion channel (Homo sapiens, UniProt Q12809)
Sequence (Q12809 whole entry): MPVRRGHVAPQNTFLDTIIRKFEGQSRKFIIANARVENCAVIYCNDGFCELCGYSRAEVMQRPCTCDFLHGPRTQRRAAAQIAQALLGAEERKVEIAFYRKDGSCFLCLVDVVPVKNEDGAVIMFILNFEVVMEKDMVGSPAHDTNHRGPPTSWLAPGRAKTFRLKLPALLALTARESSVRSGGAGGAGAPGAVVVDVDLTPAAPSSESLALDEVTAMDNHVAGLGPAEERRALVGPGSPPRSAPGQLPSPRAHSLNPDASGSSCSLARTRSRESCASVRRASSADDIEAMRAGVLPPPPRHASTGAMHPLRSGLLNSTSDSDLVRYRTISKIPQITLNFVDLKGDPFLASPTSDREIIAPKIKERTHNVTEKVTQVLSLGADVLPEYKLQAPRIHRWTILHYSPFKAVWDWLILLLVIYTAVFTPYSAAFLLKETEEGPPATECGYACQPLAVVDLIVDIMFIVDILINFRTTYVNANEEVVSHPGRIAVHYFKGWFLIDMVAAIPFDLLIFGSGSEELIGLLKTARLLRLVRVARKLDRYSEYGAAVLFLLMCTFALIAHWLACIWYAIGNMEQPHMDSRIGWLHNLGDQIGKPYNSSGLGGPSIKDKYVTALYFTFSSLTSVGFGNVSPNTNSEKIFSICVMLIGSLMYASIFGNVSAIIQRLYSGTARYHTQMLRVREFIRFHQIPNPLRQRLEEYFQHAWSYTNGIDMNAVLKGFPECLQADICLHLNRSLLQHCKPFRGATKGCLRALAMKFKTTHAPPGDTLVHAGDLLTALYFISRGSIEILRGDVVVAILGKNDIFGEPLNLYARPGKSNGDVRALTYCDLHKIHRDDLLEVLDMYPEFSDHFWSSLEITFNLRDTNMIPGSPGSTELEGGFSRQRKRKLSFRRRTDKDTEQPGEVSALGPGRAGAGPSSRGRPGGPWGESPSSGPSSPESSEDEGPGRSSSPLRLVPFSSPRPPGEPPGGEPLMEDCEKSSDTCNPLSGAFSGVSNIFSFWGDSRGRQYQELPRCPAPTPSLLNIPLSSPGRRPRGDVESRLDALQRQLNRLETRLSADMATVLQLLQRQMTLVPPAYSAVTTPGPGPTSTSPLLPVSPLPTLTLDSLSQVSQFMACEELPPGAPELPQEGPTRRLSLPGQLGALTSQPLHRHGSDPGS
Experiment: Inhibitory effect on hERG potassium ion channel (whole-cell patch clamp, HEK-hERG cells)
Assay type: cell-based
Settings: whole-cell patch clamp, room temperature, mean ± standard error, read-out: Inhibitory efficacy (IC50)
Parameter: pIC50
Convention used: pIC50 is expressed as -log10 of the molar concentration.

[[record]]
molecule_smiles = "COc1ccc2cc(C=Cc3ccc(N(C)C)cc3)oc2c1"
measured_value = 4.28


Now consider the entry below.
Qu. Please tell me: pIC50 of "CNc1ccc(C=Cc2cc3cc(OC)ccc3o2)cc1" , system hERG potassium ion channel (Homo sapiens, UniProt Q12809)?
Ans. 4.32

Origin of measurements: patent US20110124888A1
